Source of measurements: PubChem BioAssay AID602194

# MEASURED_ON: Mu-type opioid receptor (Homo sapiens) + Delta-type opioid receptor (Homo sapiens) (UniProt P35372+P41143)
# Sequence (P35372 whole entry, looked up): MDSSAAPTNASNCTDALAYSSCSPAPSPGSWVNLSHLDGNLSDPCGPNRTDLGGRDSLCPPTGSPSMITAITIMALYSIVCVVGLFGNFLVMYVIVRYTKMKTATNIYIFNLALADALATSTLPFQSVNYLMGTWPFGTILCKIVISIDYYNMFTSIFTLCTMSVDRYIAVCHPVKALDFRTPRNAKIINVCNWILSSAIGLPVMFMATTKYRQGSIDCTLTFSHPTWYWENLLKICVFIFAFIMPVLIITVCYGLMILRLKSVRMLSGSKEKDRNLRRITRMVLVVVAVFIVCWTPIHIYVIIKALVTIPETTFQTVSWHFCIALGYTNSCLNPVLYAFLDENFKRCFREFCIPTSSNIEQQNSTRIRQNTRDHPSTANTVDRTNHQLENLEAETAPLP
# Sequence (P41143 whole entry, looked up): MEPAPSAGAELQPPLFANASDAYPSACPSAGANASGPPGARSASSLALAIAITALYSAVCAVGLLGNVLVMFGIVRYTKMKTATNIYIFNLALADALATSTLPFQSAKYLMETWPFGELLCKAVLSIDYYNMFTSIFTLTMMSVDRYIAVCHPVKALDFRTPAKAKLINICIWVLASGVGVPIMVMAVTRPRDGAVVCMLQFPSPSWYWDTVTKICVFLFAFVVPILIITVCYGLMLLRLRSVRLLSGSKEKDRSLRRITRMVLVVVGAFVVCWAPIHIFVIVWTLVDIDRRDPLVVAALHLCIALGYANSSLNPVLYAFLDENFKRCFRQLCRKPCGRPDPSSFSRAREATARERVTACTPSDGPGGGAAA
# ASSAY_INFO: OPRM1-OPRD1 heterodimer beta-arrestin recruitment activators – cell-based, luminescence, counter-screen for MC4R biased agonist project (AID 602194)
# MEASUREMENT_CONTEXT: U2OS PathHunter beta-arrestin, beta-gal luminescence; at 9.2 µM; percent of deltorphin B response, DMSO zero
The whole screen tested about 2,400 compounds, of which about 140 (5.8%) were called active.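 The calls were made as follows: active = mean activation across replicates exceeds the hit threshold derived in the earlier primary screen (cut at about 18% in these data); inactive = the rest.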 A selection follows.
Write down one outcome, taken from active, inactive

# STRUCTURE_STRING, CAT
records = [
    ("O=C(OC12CC3CC(CC(C3)C1)C2)c1ccc(NCc2cc(O)ccc2O)cc1", "inactive"),
    ("O=C(Nc1nc(-c2ccc(-c3ccccc3)cc2)cs1)c1cnccn1", "inactive"),
    ("CCn1c(SCC(=O)Nc2cccc(F)c2)nnc1-c1cc2cc(Br)ccc2o1", "inactive"),
]

Exam item: Could you please tell me the result logged for COc1ccc(OCC(=O)Nc2ccc(N3CCC(C)CC3)cc2)cc1 in this assay?
Marked response: inactive

Exam item: # fetch the recorded call for Cc1ccc(-n2cc3ccc([N+](=O)[O-])cc3n2)cc1 here
Marked response: inactive

Exam item: Give the logged outcome of this assay for the following compound: CCOc1ccc(/C=C/C(=O)OCC(=O)c2ccccc2OC)cc1OC
Marked response: inactive

Exam item: What is the recorded call for this compound in the test? O=C1N/C(=C/c2cccn2-c2ccccc2)C(=O)N1c1cccc(Cl)c1
Marked response: inactive

Exam item: In this assay, the call recorded for COc1cc(/C=C2\Oc3ccc(C#Cc4ccc(O)cc4)cc3C2=O)cc(OC)c1 was what?
Marked response: inactive

Exam item: What classification did CCN1CCC2(CC1)N=C(c1ccc(F)cc1)C(=S)N2C(=O)c1ccc(C)cc1 end up with in this test?
Marked response: active

Exam item: Given COc1ccc(S(=O)(=O)N/N=C\c2ccc(OC)c(COc3ccc(C)cc3[N+](=O)[O-])c2)cc1 , state the outcome it received in this test.
Marked response: inactive

Exam item: Please state the recorded outcome for this compound: COc1ccc(Nc2oc(-c3ccccc3Cl)nc2C#N)cc1
Marked response: inactive

Exam item: Recorded test outcome, item COc1ccc(S(=O)(=O)N2CCC(C(=O)OCC(=O)c3ccccc3)CC2)cc1[N+](=O)[O-]
Marked response: inactive

Exam item: Test call for this compound, please: COc1cc(/C=C(\C#N)C(=O)Nc2ccc3ccccc3c2)c([N+](=O)[O-])cc1OC
Marked response: inactive

Exam item: Check the results log: what was the call for Cc1ccc(Sc2ccc(NC(=O)c3ccc(F)cc3)cc2C#N)cc1 ?
Marked response: inactive

Exam item: Name the outcome recorded for Cc1ccc(Nc2nnc(SCc3ccccc3)s2)cc1 in the assay.
Marked response: inactive

Exam item: Which outcome was assigned to O=C(NC(=S)Nc1cccc2c(O)cccc12)c1cccc(Br)c1 in this test?
Marked response: inactive

Exam item: Status in this test for O=C(CCCCCn1c(=S)[nH]c2cc3c(cc2c1=O)OCO3)N1CCN(c2ccc(F)cc2)CC1 ?
Marked response: inactive

Exam item: Recorded call for Cc1cc(OCc2cc(C(=O)NCc3cc(C(C)C)no3)no2)cc(C)c1Cl ?
Marked response: inactive

Exam item: Hi team, can someone confirm the assay call for Cc1ccc(-n2nc(C)c(/C=N/NC(=O)c3cccs3)c2Cl)cc1 ?
Marked response: inactive

Exam item: For this compound, state the assay outcome: Cn1c(=S)sc2ccc3ccccc3c21
Marked response: inactive

Exam item: Outcome logged for N#CC(=C1SC=CS1)c1nc(-c2ccccc2)cs1 in this assay:
Marked response: inactive

Exam item: Per the records of this test, what outcome belongs to Cc1ccccc1NC(=O)c1ccc(COc2ccc3c(C)cc(=O)oc3c2)cc1 ?
Marked response: inactive

Exam item: Short answer needed: outcome of this test for O=C(OCc1cn(-c2ccc(Cl)c(Cl)c2)nn1)c1ccccc1Cl ?
Marked response: inactive

Exam item: Given O=C(Cn1cnc2c(nnn2-c2ccccc2)c1=O)N1CCC(Cc2ccccc2)CC1 , state the outcome it received in this test.
Marked response: inactive

Exam item: What did this assay record as the result for CC(C)c1ccc2c(c1)c(SC(C)(C)C)c(CC(C)(C)C(=O)O)n2Cc1ccc(Cl)cc1 ?
Marked response: inactive

Exam item: So what was the verdict on COC(=O)c1sccc1NC(=O)c1cc(OC)c(OC)c(OC)c1 in this test?
Marked response: inactive

Exam item: Recorded test outcome, item Cc1cc(C)cc(C(=O)OCC(=O)NCCNC(=O)COC(=O)c2cc(C)cc(C)c2)c1
Marked response: inactive
